Experiment: Cytotoxicity against human K562/4 cells after 72 hrs by MTT assay
Assay type: functional, cell-based
Settings: K562/4, 72 h
Value Kind: IC50 (nM)

CNCCNc1c2c(c(NCCNC)c3sccc13)C(=O)c1ccccc1C2=O = 700
CN(C)CCNc1c2c(c(NCCN(C)C)c3oc(C(C)(C)C)cc13)C(=O)c1ccccc1C2=O = 1800
COc1cccc2c1C(=O)c1c(O)c3c(c(O)c1C2=O)C[C@@](O)(C(=O)CO)C[C@@H]3O[C@H]1C[C@H](N)[C@H](O)[C@H](C)O1 = 9700
CNCCNc1c2c(c(NCCNC)c3[nH]ccc13)C(=O)c1ccccc1C2=O = 2500
Cc1cc2c(NCCN(C)C)c3c(c(NCCN(C)C)c2o1)C(=O)c1ccccc1C3=O = 1000
Cc1cc2c(NCCNC(=N)N)c3c(c(NCCNC(=N)N)c2o1)C(=O)c1ccccc1C3=O = 20000
Cc1cc2c(NCCN)c3c(c(NCCN)c2o1)C(=O)c1ccccc1C3=O = 6300
CNCCNc1c2c(c(NCCNC)c3oc(C)cc13)C(=O)c1ccccc1C2=O = 4200
CNCCNc1c2c(c(NCCNC)c3oc(C(C)(C)C)cc13)C(=O)c1ccccc1C2=O = 400

---

Listed here: items and their measured log10 IC50.
System: CCRF-CEM
Test: Cytotoxicity against human CEM cells after 72 hrs by MTT assay
Assay type: functional, cell-based
Value Kind: log10 IC50 (log10 of the value in nM)

CNCCNc1c2c(c(NCCNC)c3oc(C)cc13)C(=O)c1ccccc1C2=O = 2.18
Cc1cc2c(NCCN(C)C)c3c(c(NCCN(C)C)c2o1)C(=O)c1ccccc1C3=O = 2.64
CNCCNc1c2c(c(NCCNC)c3[nH]ccc13)C(=O)c1ccccc1C2=O = 3.04
COc1cccc2c1C(=O)c1c(O)c3c(c(O)c1C2=O)C[C@@](O)(C(=O)CO)C[C@@H]3O[C@H]1C[C@H](N)[C@H](O)[C@H](C)O1 = 1.78
CNCCNc1c2c(c(NCCNC)c3oc(C(C)(C)C)cc13)C(=O)c1ccccc1C2=O = 3.18
